This collection of values is drawn from ChEMBL document CHEMBL1268902.

- tgt: hERG (KCNH2) (Homo sapiens, UniProt Q12809)
- Sequence (Q12809 whole entry): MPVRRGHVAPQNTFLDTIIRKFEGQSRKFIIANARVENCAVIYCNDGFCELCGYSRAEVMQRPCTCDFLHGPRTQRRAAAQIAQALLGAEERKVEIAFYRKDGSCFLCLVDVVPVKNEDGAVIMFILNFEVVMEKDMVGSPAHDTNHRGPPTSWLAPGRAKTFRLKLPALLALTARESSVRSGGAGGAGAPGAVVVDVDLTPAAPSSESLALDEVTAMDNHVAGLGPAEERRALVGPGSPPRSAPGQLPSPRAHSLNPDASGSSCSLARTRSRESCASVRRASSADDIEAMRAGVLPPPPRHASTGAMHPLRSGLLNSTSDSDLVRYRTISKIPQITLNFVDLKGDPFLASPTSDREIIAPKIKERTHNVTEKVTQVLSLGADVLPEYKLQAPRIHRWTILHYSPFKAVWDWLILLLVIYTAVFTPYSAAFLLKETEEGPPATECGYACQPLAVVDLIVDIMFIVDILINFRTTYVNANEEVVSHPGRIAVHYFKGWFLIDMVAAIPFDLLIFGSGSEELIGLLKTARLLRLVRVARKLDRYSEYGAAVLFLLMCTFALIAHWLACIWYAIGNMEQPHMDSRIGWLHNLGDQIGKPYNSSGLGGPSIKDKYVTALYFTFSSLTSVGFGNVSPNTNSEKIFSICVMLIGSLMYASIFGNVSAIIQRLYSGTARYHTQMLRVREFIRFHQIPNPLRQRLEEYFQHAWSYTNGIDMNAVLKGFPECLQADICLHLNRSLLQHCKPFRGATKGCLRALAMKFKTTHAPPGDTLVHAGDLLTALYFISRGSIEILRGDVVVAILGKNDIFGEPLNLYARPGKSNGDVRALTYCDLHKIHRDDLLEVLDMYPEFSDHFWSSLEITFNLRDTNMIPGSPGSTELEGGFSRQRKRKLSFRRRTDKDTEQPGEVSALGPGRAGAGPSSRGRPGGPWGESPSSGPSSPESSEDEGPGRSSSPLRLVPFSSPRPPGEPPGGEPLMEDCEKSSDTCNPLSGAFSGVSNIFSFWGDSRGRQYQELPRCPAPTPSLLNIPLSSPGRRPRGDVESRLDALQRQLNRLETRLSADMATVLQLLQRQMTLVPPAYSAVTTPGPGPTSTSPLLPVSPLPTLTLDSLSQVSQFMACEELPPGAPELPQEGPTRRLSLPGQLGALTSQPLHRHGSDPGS
- test-details: Inhibition of human ERG at 30 uM
inhibition at 30 µM values by entry

Some compounds with recorded inhibition at 30 µM:
[
  {
    "line-notation": "CCCNC(=S)NCCO[C@@H]1[C@H](C)[C@@H](O)[C@](C)(O)[C@@H](CC)OC(=O)[C@H](C)[C@@H](O[C@H]2C[C@@](C)(OC)[C@@H](O)[C@H](C)O2)[C@H](C)[C@@H](O[C@@H]2O[C@H](C)C[C@H](N(C)C(C)C)[C@H]2O)[C@](C)(O)C[C@H]1C",
    "tgt": "hERG (KCNH2) (Homo sapiens, UniProt Q12809)",
    "test-readout": "inhibition at 30 µM",
    "meas-value": "53%"
  },
  {
    "line-notation": "CCNC(=S)NCCO[C@@H]1[C@H](C)[C@@H](O)[C@](C)(O)[C@@H](CC)OC(=O)[C@H](C)[C@@H](O[C@H]2C[C@@](C)(OC)[C@@H](O)[C@H](C)O2)[C@H](C)[C@@H](O[C@@H]2O[C@H](C)C[C@H](N(C)C(C)C)[C@H]2O)[C@](C)(O)C[C@H]1C",
    "tgt": "hERG (KCNH2) (Homo sapiens, UniProt Q12809)",
    "test-readout": "inhibition at 30 µM",
    "meas-value": "36%"
  },
  {
    "line-notation": "CC[C@H]1OC(=O)[C@H](C)[C@@H](O[C@H]2C[C@@](C)(OC)[C@@H](O)[C@H](C)O2)[C@H](C)[C@@H](O[C@@H]2O[C@H](C)C[C@H](N(C)C(C)C)[C@H]2O)[C@](C)(O)C[C@@H](C)[C@H](OCCNC(C)C)[C@H](C)[C@@H](O)[C@]1(C)O",
    "tgt": "hERG (KCNH2) (Homo sapiens, UniProt Q12809)",
    "test-readout": "inhibition at 30 µM",
    "meas-value": "40%"
  }
]

Entry `CC[C@H]1OC(=O)[C@H](C)[C@@H](O[C@H]2C[C@@](C)(OC)[C@@H](O)[C@H](C)O2)[C@H](C)[C@@H](O[C@@H]2O[C@H](C)C[C@H](N(C)C(C)C)[C@H]2O)[C@](C)(O)C[C@@H](C)[C@H](OCCNC(=O)OC)[C@H](C)[C@@H](O)[C@]1(C)O` has what inhibition at 30 µM?
40%

Entry `CC[C@H]1OC(=O)[C@H](C)[C@@H](O[C@H]2C[C@@](C)(OC)[C@@H](O)[C@H](C)O2)[C@H](C)[C@@H](O[C@@H]2O[C@H](C)C[C@H](N(C)C(C)C)[C@H]2O)[C@](C)(O)C[C@@H](C)[C@H](OCCNC(C)=O)[C@H](C)[C@@H](O)[C@]1(C)O` has what inhibition at 30 µM?
47%
